I'd be grateful if you could share measured Free energy of binding (ΔG) A2AAR for these entries.
Target: human A2AAR (Homo sapiens, UniProt P29274)
Construct: expressed in transfected cells; host or cells: HEK293 (membrane preparations)
Sequence (P29274 whole entry): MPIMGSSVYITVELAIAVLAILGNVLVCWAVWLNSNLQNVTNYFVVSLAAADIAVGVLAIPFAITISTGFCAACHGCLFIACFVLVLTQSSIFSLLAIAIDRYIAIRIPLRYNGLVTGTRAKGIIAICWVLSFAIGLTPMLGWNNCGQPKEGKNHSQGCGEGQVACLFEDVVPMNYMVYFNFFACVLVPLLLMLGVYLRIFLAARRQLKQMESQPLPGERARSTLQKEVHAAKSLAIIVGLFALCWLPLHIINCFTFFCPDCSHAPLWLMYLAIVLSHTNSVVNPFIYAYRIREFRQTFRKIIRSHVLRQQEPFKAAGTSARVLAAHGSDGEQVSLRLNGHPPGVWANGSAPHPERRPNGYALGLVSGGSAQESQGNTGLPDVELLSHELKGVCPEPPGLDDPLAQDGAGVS
Assay: Radioligand binding assay, displacement of [3H]ZM241385
Settings: calculated from experimental binding affinities
Give bare numbers, in kcal/mol.

Please review the following examples before continuing.
# molecule, Free energy of binding (ΔG) A2AAR [kcal/mol]
data = [
    ("Cc1cccc2sc(NC(=O)C(C)(C)C)nc12", -7.1),
    ("CCC(CC)C(=O)Nc1nc2ccccc2s1", -7.6),
]

INPUT: Suppose we examine the compound `CCc1ccc2sc(NC(=O)C3(C)CCCC3)nc2c1` ; what Free energy of binding (ΔG) A2AAR value has been reported?
OUTPUT: -7.8
